Would you kindly list melting point for each of these compounds?
One number for each entry, in °C.

Which melting point reading was recorded for the compound O=C(O)c1ccc(Br)cc1 ? 256

Which melting point reading was recorded for the compound CO[SiH](OC)OC ? -115

Which melting point reading was recorded for the compound Clc1cccc(Cl)c1NC1=NCCN1 ? 130

Which melting point reading was recorded for the compound CC1CCC(C(C)C)C(OC(=O)C(=O)/C=C/c2ccccc2)C1 (centres undefined) ? 46

Which melting point reading was recorded for the compound O=C(O)C1CCN(C(=O)CCl)CC1 ? 110

Which melting point reading was recorded for the compound C[Si](C)(C)Cl [chlorotrimethylsilane] ? -58

For each of the compounds below, note its melting point.
1. NC(=O)NNc1ccccc1 [1-phenylsemicarbazide]
2. COc1ccc(C=CC(=O)c2ccccc2)cc1
3. C#C[C@]1(O)CC[C@H]2[C@@H]3CCC4=CC(=O)CC[C@@H]4[C@H]3CC[C@@]21CC
4. Cc1cc(C)c(Br)c(C)c1Br

172
76
206
60

For each of the compounds below, note its melting point.
1. O=Cc1ccnc(Cl)c1
2. C=CCc1ccccc1
3. CC(C)(C)OOC(C)(C)C [Di-tert-butyl peroxide]
4. Clc1ccc(Cl)c(I)c1

48
-50
-40
21

----------
# strict inequality: melting point < 100 °C yields 1, everything else yields 0

Dear colleague, could you confirm whether melting point of O=C(CCl)Nc1cccc([N+](=O)[O-])c1 [2-chloro-3'-nitroacetanilide] falls below 100 °C? Thanks. 0

Dear colleague, could you confirm whether melting point of O=C(O)c1c(Cl)cccc1Cl [2,6-Dichlorobenzoic acid] falls below 100 °C? Thanks. 0

Dear colleague, could you confirm whether melting point of CCOC(=O)c1ccc([N+](=O)[O-])cc1 [ethyl_4-nitrobenzoate] falls below 100 °C? Thanks. 1

Dear colleague, could you confirm whether melting point of COc1ccc2c(C)cc(=O)[nH]c2c1 falls below 100 °C? Thanks. 0

Dear colleague, could you confirm whether melting point of COc1ccc(OC)c2c1C(=O)OC2O (stereo unspecified) [3-hydroxy-4,7-dimethoxy-2-benzofuran-1(3H)-one] falls below 100 °C? Thanks. 0

Next:
Dear colleague, could you confirm whether melting point of CC(=O)Nc1ccc(C=O)cc1 falls below 100 °C? Thanks. 0

Dear colleague, could you confirm whether melting point of CS(=O)(=O)c1ccc(C(=O)O)cc1 falls below 100 °C? Thanks. 0

----------
MEASUREMENT NAME: melting point (°C)
One number for each entry, in °C.

Which melting point reading was recorded for the compound Clc1ccccc1I ? 1

Which melting point reading was recorded for the compound NC(=O)c1c(F)c(F)c(F)c(F)c1F [2,3,4,5,6-pentafluorobenzamide] ? 148

Which melting point reading was recorded for the compound Cc1ccc(B(O)O)cc1[N+](=O)[O-] ? 250

Which melting point reading was recorded for the compound Brc1ccc(-c2cccc(Br)n2)cn1 ? 168

Which melting point reading was recorded for the compound NC1=NCC(c2ccccc2)O1 (stereo not drawn) [Aminorex] ? 137

For each of the compounds below, note its melting point.
1. OC(c1ccccc1)(c1ccccc1)c1ccccc1
2. CCC1(c2ccccc2)NC(=O)N(C)C1=O (stereo not drawn) [Mephenytoin]

[163, 135]

Which melting point reading was recorded for the compound Clc1cc(Cl)c(Cl)c(Cl)c1Cl ? 85

----------
MEASUREMENT NAME: melting point (°C)
Give bare numbers, in °C.

Completed entries (count: 3):
Which melting point reading was recorded for the molecule CCCCCCCCCCCCC=O ? 15

Which melting point reading was recorded for the molecule Cc1ccc(F)cc1B(O)O ? 149

Which melting point reading was recorded for the molecule C/C=C\Br [cis-1-bromo-1-propene] ? -113

For each of the molecules below, note its melting point.
1. C#CC1(O)CCC2C3CCC4C(C)(C)CCCC4(C)C3CCC21C (stereo not given)
2. CC(=O)Oc1ccc(C(=O)O)cc1

1: 157; 2: 194
